Assay: chemical genetic growth profiling, strain panel (AID 1159580);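 note: tested at 20 µM; growth read once vehicle control cultures reached saturation at 30 °C; 1 = growth at the plate median or of vehicle wells; lower values mean less growth of the strain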
Details: S. cerevisiae deletion strains, growth OD, locus YBR171W, strain sec66
Hit rate of the full screen: of about 5,500 compounds, about 2,000 (36%) were called active. Another 18% or so got no clear call; they are omitted. Cut-off read from the data, not from the text of the source: active = normalized growth mostly below about 0.91 (no sharp cut-off); inconclusive = no clear call, values can overlap the other calls; inactive = mostly above about 0.92. The list shows a part of the results.
Outcome codes: 1 (yes) (active), 0 (no) (inactive)

| compound | assigned_class |
| --- | --- |
| O=C(/C=C/c1ccc(O)cc1)c1ccc(O)cc1O | 0 (no) |
| CC(=O)NS(=O)(=O)c1ccc(N)cc1 | 0 (no) |
| O=C(/C=C/c1ccccc1)c1ccc(O)cc1O | 1 (yes) |
| CNC(C)[C@@H]1CC[C@@H](N)[C@@H](OC2[C@@H](N)C[C@@H](N)[C@H](OC3OC[C@](C)(O)[C@H](NC)[C@H]3O)[C@H]2O)O1 (stereo not given in full) | 0 (no) |
| O=C(Nc1ccc([N+](=O)[O-])cc1Cl)c1cc(Cl)ccc1O | 0 (no) |
| O=C(/C=C/c1ccc(O)cc1)c1ccccc1O | 1 (yes) |
| ClC1C(Cl)C(Cl)C(Cl)C(Cl)C1Cl (stereo not given) | 0 (no) |
| OC[C@H]1O[C@@H](Oc2ccc(O)cc2)[C@H](O)[C@@H](O)[C@@H]1O | 0 (no) |
| NNCc1ccccc1 | 0 (no) |
| O=c1c(O)c(-c2ccccc2)oc2cccc(O)c12 | 1 (yes) |

* * *

Reported normalized growth values are given for each entry in this list.
Assay: chemical genetic growth profiling, strain panel (AID 1159580)
Settings: S. cerevisiae deletion strains, growth OD, locus YJL095W, strain BCK1, hits give low values
Out of some 5,500 compounds screened, about 2,000 (36%) were called active. Another 18% or so got no clear call; they are omitted. The list shows a part of the results.
quantity_kind: normalized growth

| compound | quantity_kind | result_value |
| --- | --- | --- |
| CC(C)Sc1c(Cl)cccc1NC(=O)Nc1cccc(C(F)(F)F)c1 | normalized growth | 0.887 |
| O=C(Nc1cc(Cl)cc(Cl)c1)c1cc(Cl)ccc1O | normalized growth | 0.751 |
| Cn1cc(Br)c(-c2cccc(NS(=O)(=O)c3ccc(Cl)cc3)c2)n1 | normalized growth | 0.988 |
| O=C(Nc1ccc(F)cc1F)c1cc(Cl)ccc1O | normalized growth | 0.877 |
| N#CC(C(=O)Nc1cccc(C(F)(F)F)c1)C(=S)Nc1ccccc1Cl (centres undefined) | normalized growth | 0.914 |
| O=S(=O)(Nc1c(F)cccc1F)c1ccc(Cl)c(Cl)c1 | normalized growth | 0.947 |
| O=C1C(NCc2ccccc2)=C(NCc2ccccc2)C(=O)c2ccccc21 | normalized growth | 0.886 |
| O=C1c2ccccc2C(=O)c2sccc21 | normalized growth | 0.154 |
| CC(=O)c1c(O)cc(O)cc1O | normalized growth | 0.992 |

* * *

Experiment: chemical genetic growth profiling, strain panel (AID 1159580)
Conditions: S. cerevisiae deletion strains, growth OD, locus YLR027C, strain aat2
Out of some 5,500 compounds screened, about 2,000 (36%) were called active. Inconclusive results (about 18%) are left out. No stated cut-off is given here; in the data, active means normalized growth mostly below about 0.91 (no sharp cut-off); inconclusive means no clear call, values can overlap the other calls; inactive means mostly above about 0.92. This is one part of the list.
Possible outcomes: active, inactive

| compound | assigned_class |
| --- | --- |
| CC(NC(C)(C)C)C(=O)c1cccc(Cl)c1 (stereo unspecified) | inactive |
| COc1cc(OC)c2c(OC)c(-c3ccc4c(c3)OCO4)c(=O)oc2c1 | inactive |
| COc1ccc(CC(=O)c2ccc(O)cc2O)cc1 | inactive |
| COc1ccc(-c2c(O)c3c(OC)c4c(cc3oc2=O)OC(C)(C)C=C4)cc1 | inactive |
| CC(=O)Oc1c(C)c(C)c2c(c1C)CCC(C)(CCCC(C)CCCC(C)CCCC(C)C)O2 (stereo unspecified) | inactive |
| O=c1c(O)cccc2cc(O)c(O)c(O)c12 | active |

* * *

Items are presented alongside their recorded normalized growth.
Assay: chemical genetic growth profiling, strain panel (AID 1159580);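 note: tested at 20 µM; growth read once vehicle control cultures reached saturation at 30 °C; 1 = growth at the plate median or of vehicle wells; lower values mean less growth of the strain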
Details: S. cerevisiae deletion strains, growth OD, locus YGL253W, strain hxk2, hits give low values
Out of some 5,500 compounds screened, about 2,000 (36%) were called active. Roughly 18% stayed inconclusive and do not appear here. The list shows a part of the results.
quantity_kind: normalized growth

| molecule | result_value |
| --- | --- |
| CC1(C)CC23C(=O)CCC(O)C2(C)CCC13 (stereo unspecified) | 0.984 |
| O=C(O)CC[N+](=O)[O-] | 1.01 |
| CC(=O)Oc1c(C)c(C)c2c(c1C)CCC(C)(CCCC(C)CCCC(C)CCCC(C)C)O2 (stereo unspecified) | 0.977 |
| CC(=O)NS(=O)(=O)c1ccc(N)cc1 | 1.02 |
| CNC(=O)N(C)c1nnc(C(C)(C)C)s1 | 0.991 |
| CNC(C)[C@@H]1CC[C@@H](N)[C@@H](OC2[C@@H](N)C[C@@H](N)[C@H](OC3OC[C@](C)(O)[C@H](NC)[C@H]3O)[C@H]2O)O1 (stereo partly specified) | 0.987 |

* * *

Reported normalized growth values for a set of molecules
Assay: chemical genetic growth profiling, strain panel (AID 1159580);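 note: tested at 20 µM; growth read once vehicle control cultures reached saturation at 30 °C; 1 = growth at the plate median or of vehicle wells; lower values mean less growth of the strain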
Conditions: S. cerevisiae deletion strains, growth OD, locus YER155C, strain BEM2, hits give low values
In all, about 5,500 compounds went through this assay and about 2,000 (36%) were called active. Another 18% or so got no clear call; they are omitted. The list shows a part of the results.

| molecule | normalized growth |
| --- | --- |
| COc1ccccc1OCC(O)COC(N)=O (stereo unspecified) | 0.993 |
| COC(=O)C[C@H]1C(C)(C)[C@@H](OC(C)=O)[C@@H]2CC3=C4CC(=O)O[C@@H](c5ccoc5)[C@]4(C)CCC3[C@@]1(C)C2=O (stereo partly specified) | 0.997 |
| CC(=O)O[C@@H]1C2CC[C@@H]3C1(C[C@@H](O)[C@@]1(O)[C@@H](C[C@H](O)C1(C)C)[C@]3(C)O)C[C@@]2(C)O (stereo partly specified) | 0.997 |
| Cn1c(=O)[nH]c2ncn(C)c2c1=O | 1.02 |
| Cn1c(=O)c2c(ncn2C)n(C)c1=O | 0.994 |
| COc1ccc(/C=C/c2cc(O)cc(O[C@@H]3O[C@H](CO)[C@@H](O)[C@H](O)[C@H]3O)c2)cc1 | 1.02 |
| CC(C)[C@@H]1CC[C@@H](C)C[C@H]1OC(=O)c1ccccc1 | 1.01 |
| CC1=C(C(=O)O)N2C(=O)[C@@H](NC(=O)[C@@H](N)c3ccc(O)cc3)[C@H]2SC1 | 0.995 |
| OC[C@H]1O[C@@H](Oc2ccc(O)cc2)[C@H](O)[C@@H](O)[C@@H]1O | 0.999 |
| CN1CCC[C@H]1c1cccnc1 | 0.992 |
| O=C1C=CC(=O)c2c(O)cccc21 | 1 |
| ClC1C(Cl)C(Cl)C(Cl)C(Cl)C1Cl (stereo unspecified) | 0.959 |
| CNC(C)[C@@H]1CC[C@@H](N)[C@@H](OC2[C@@H](N)C[C@@H](N)[C@H](OC3OC[C@](C)(O)[C@H](NC)[C@H]3O)[C@H]2O)O1 (stereo partly specified) | 1.01 |
| NC(Cc1ccc(Cl)cc1)C(=O)O (stereo unspecified) | 1.01 |
| Cn1c(=O)[nH]c2nc[nH]c2c1=O | 1.01 |
| O=C(/C=C/c1ccccc1)c1ccc(O[C@@H]2O[C@H](CO)[C@@H](O)[C@H](O)[C@H]2O)cc1O | 0.912 |
| O=C(O)c1cc(O)c2c(c1)C(=O)c1cc(O)cc(O)c1C2=O | 0.968 |
| O=C(/C=C/c1ccccc1)c1c(O)cc(O)cc1O | 1.01 |
| O=C1c2cccc(O)c2C(=O)c2c(O)cccc21 | 0.835 |
| CC(=O)OCC1=C(C(=O)O)N2C(=O)[C@@H](NC(=O)CSc3ccncc3)[C@H]2SC1 | 0.994 |
| COC1=CC23CCCN2CCc2cc4c(cc2C3C1O)OCO4 (stereo unspecified) | 1 |

* * *

Assay: chemical genetic growth profiling, strain panel (AID 1159580);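 note: tested at 20 µM; growth read once vehicle control cultures reached saturation at 30 °C; 1 = growth at the plate median or of vehicle wells; lower values mean less growth of the strain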
Conditions: S. cerevisiae deletion strains, growth OD, locus YOR231W, strain MKK1, hits give low values
In all, about 5,500 compounds went through this assay and about 2,000 (36%) were called active. Another 18% or so got no clear call; they are omitted. The list shows a part of the results.

| compound | normalized growth |
| --- | --- |
| CC(NC(C)(C)C)C(=O)c1cccc(Cl)c1 (stereo not given) | 1 |
| CC[C@H]1OC(=O)[C@H](C)[C@@H](O[C@H]2C[C@@](C)(OC)[C@@H](O)[C@H](C)O2)[C@H](C)[C@@H](O[C@@H]2O[C@H](C)C[C@H](N(C)C)[C@H]2O)[C@](C)(O)C[C@@H](C)/C(=N/OCOCCOC)[C@H](C)[C@@H](O)[C@]1(C)O | 0.988 |
| CC(C)OC(=O)Nc1cc(Cl)cc(Cl)c1 | 0.729 |
| COc1cc2c(cc1OC)C(C)NCC2 (stereo not given) | 1.02 |
| COC(=S)Nc1cc(Cl)cc(Cl)c1 | 0.585 |
| Cc1cc(O)c2c(c1)C(=O)c1cccc(O)c1C2=O | 1.09 |
| O=C(/C=C/c1ccc(Cl)cc1)Nc1cccc(Cl)c1 | 0.837 |
| CCCC(=O)Nc1ccc(OCC(O)CNC(C)C)c(C(C)=O)c1 (stereo not given) | 0.993 |
| O=C1C=CC(=O)c2c(O)cccc21 | 0.964 |
| CC(=O)CCCCn1c(=O)c2c(ncn2C)n(C)c1=O | 0.977 |
